- TESTED ON: Serine-protein kinase ATM (Homo sapiens, UniProt Q13315)
- Sequence (Q13315 whole entry): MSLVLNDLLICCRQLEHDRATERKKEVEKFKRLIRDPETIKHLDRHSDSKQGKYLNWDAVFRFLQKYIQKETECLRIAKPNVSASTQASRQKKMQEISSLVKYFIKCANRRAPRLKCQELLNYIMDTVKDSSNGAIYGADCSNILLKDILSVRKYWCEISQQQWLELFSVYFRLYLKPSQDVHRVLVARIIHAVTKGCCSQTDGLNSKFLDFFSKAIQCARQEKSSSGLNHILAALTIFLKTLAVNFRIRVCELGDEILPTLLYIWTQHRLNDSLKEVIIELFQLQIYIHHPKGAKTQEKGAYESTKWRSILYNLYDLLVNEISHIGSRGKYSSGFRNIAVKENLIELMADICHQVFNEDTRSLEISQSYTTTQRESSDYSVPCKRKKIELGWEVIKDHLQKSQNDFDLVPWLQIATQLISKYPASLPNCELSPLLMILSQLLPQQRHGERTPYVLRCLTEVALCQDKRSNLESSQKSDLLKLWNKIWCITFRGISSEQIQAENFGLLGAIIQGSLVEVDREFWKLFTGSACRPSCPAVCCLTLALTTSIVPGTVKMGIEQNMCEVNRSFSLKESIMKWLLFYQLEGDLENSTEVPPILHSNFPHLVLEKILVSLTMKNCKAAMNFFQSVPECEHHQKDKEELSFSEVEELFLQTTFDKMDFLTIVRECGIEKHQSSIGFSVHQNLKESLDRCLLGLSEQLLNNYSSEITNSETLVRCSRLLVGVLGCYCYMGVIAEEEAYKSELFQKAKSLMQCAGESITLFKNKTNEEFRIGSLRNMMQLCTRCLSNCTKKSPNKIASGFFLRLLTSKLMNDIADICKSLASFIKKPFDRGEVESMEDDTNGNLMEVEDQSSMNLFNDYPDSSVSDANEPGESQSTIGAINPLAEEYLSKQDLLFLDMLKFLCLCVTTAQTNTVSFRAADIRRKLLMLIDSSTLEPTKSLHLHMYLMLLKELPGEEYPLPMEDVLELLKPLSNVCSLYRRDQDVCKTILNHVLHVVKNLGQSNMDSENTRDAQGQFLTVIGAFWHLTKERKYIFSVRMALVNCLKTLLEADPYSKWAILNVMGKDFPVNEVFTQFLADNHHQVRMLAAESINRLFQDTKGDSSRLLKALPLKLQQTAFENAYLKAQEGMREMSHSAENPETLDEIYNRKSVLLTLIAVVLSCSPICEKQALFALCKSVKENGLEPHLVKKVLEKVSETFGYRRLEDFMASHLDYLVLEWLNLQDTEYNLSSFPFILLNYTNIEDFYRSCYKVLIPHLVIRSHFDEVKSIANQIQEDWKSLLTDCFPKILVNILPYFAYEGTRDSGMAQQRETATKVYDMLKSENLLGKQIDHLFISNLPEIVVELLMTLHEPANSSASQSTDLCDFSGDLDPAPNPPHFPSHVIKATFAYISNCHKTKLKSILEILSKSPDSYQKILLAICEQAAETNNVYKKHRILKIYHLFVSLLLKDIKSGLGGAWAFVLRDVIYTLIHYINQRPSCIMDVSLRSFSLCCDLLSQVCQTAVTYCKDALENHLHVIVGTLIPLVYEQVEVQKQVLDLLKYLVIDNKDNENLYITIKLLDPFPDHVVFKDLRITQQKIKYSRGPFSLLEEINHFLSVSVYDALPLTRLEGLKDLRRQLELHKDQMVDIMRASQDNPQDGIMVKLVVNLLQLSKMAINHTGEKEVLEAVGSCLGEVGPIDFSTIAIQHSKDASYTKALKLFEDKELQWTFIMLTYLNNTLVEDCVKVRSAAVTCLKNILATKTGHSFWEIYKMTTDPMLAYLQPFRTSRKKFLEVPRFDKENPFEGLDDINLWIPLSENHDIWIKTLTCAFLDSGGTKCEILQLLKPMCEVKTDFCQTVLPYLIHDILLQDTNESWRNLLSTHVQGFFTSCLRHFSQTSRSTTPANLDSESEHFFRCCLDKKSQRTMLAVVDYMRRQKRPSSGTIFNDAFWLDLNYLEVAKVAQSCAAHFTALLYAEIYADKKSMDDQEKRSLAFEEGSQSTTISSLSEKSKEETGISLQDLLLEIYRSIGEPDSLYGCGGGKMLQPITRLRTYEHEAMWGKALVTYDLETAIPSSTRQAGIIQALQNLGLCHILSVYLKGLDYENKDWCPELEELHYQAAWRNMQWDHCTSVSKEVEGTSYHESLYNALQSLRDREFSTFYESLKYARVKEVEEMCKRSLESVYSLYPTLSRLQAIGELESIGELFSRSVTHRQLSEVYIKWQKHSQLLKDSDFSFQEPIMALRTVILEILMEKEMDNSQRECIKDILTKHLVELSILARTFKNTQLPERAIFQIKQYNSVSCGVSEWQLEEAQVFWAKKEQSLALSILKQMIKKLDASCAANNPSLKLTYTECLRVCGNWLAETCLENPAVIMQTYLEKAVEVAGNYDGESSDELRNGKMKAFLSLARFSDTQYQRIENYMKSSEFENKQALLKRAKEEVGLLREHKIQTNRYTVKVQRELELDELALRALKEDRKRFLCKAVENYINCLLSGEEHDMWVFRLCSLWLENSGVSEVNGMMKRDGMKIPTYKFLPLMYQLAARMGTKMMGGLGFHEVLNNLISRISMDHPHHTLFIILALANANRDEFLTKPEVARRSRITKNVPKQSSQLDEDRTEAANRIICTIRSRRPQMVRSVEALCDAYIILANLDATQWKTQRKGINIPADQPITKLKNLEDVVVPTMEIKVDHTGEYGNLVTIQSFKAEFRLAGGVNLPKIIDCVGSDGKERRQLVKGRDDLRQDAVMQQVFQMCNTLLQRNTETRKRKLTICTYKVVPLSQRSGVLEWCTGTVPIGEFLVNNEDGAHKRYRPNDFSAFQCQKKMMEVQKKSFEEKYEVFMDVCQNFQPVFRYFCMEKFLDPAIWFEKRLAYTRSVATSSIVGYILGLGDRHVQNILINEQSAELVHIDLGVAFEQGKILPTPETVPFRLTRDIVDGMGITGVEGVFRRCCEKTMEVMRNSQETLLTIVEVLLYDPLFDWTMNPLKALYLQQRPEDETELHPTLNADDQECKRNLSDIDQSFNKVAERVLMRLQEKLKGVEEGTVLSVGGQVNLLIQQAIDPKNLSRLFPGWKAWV
- TEST DESCRIPTION: Inhibition of ATM (unknown origin) by FRET assay
pIC50: −log10 of the molar value.
Each record here notes measured pIC50.
MEASUREMENT KIND: pIC50

COCCn1c(=O)n(C)c2cnc3ccc(-c4ccc(NC(=O)N5CCN(C)CC5)c(F)c4)cc3c21 :: 6.40
COCCn1c(=O)n(C)c2cnc3ccc(-c4ccc(NC(=O)N5CCN(C)CC5)cc4F)cc3c21 :: 7.00
COCCn1c(=O)n(C)c2cnc3ccc(-c4ccc(NC(=O)NCCN(C)C)c(C)c4F)cc3c21 :: 7.43
COCCn1c(=O)n(C)c2cnc3ccc(-c4ccc(NC(=O)NCCN(C)C)c(F)c4Cl)cc3c21 :: 7.49
